Where do these numbers come from? They come from patent US20040157818A1.

target: CXCR4 (Homo sapiens); construct: endogenous in cells; host or cells: MT-4 cells; assay: CXCR4-binding inhibition activity (125I-SDF-1α binding to MT-4 cells); settings: 0.1 μM test material, ligand 125I-SDF-1α, 2 hours under ice cold condition
Sequence (P61073 whole entry): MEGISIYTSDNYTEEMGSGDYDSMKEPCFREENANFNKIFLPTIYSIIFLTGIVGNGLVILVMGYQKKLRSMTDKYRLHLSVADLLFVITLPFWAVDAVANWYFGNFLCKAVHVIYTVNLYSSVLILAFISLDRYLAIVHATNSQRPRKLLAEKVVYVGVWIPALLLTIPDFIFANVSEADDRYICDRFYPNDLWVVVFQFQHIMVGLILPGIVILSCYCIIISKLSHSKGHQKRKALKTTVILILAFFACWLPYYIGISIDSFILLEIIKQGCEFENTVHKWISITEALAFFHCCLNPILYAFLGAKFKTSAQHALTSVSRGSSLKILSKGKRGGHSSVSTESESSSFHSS
Assign yes to entries whose inhibition rate (binding-inhibition % at 0.1 μM) meets or exceeds 50%; assign no to the rest.

Example entries begin here.
                                   compound  answer_label
0  O=C(N[C@@H](CCCNCc1ncc[nH]1)C(=O)NCc1cccc2ccccc12)c1ccc(CNCc2ncc[nH]2)c2ccccc12           yes
1  O=C(N[C@@H](CCCNCc1ccccn1)C(=O)NCc1cccc2ccccc12)c1ccc(CNCc2ncc[nH]2)c2ccccc12           yes
2  C[C@H](NC(=O)[C@H](CCCNC(=N)N)NC(=O)c1ccc(CNCc2ccccn2)c2ccccc12)c1cccc2ccccc12           yes
3  Cn1ccnc1CNCc1ccc(C(=O)N[C@@H](CCCNC2CCCc3cccnc32)C(=O)NCc2cccc3ccccc23)cc1 (stereo partly drawn)           yes
4  O=C(N[C@@H](CCCNC1CCCc2cccnc21)C(=O)NCc1cccc2ccccc12)c1ccc(CNC2CCCc3cccnc32)cc1 (stereo partly drawn)           yes

Now, please, on to the next compound.
State whether the measured inhibition rate (binding-inhibition % at 0.1 μM) reaches 50%, counting equality as reaching it, for `O=C(N[C@@H](CCCNCc1ccccn1)C(=O)NCc1cccc2ccccc12)c1ccc(CNCc2ccccn2)cc1`
no

---

# inhibition rate (binding-inhibition % at 0.1 μM) per record follows
biological target: CXCR4 (Homo sapiens); construct: endogenous in cells; host or cells: MT-4 cells; assay: CXCR4-binding inhibition activity (125I-SDF-1α binding to MT-4 cells); details: 0.1 μM test material, ligand 125I-SDF-1α, 2 hours under ice cold condition
Provide the reading as a plain figure in %.

Worked cases, answers included:
In [3]: df
Out[3]:
                           structure_smiles  numeric_readout
0  C[C@@H](NC(=O)[C@H](CCCNCc1ccccn1)NC(=O)c1ccc(CNCc2ncc[nH]2)c2ccccc12)c1cccc2ccccc12             52.0
1  O=C(N[C@@H](CCCNCc1ncc[nH]1)C(=O)NCc1cccc2ccccc12)c1ccc(CNCc2ncc[nH]2)cc1             12.8
2  Cn1cccc1CNCCC[C@H](NC(=O)c1ccc(CNCc2nccn2C)cc1)C(=O)NCc1cccc2ccccc12             60.9

Which inhibition rate (binding-inhibition % at 0.1 μM) reading was recorded for the compound `C[C@H](NC(=O)[C@H](CCCNC1=NCCCN1)NC(=O)c1ccc(CNCc2ncc[nH]2)cc1)c1cccc2ccccc12` ?
84.2

---

test system: ICR mice; assay: Acute toxicity in ICR mice; type: in vivo; conditions: 50 mg/kg intraperitoneally twice a day for 4 days; dead mice after 5 days; male ICR mice, three animals per group
# Number of dead mice per record follows

Worked cases, answers included:
                                   compound  result
0  C[C@H](NC(=O)[C@H](CCCN=C(N)N)NC(=O)c1ccc(CNCc2ccccn2)cc1)c1cccc2ccccc12     0/3
1  O=C(N[C@@H](CCCNC1CCCc2cccnc21)C(=O)NCCc1c[nH]c2ccccc12)c1ccc(CNCc2ccccn2)c2ccccc12 (stereo partly drawn)     0/3
2  C[C@H](NC(=O)[C@H](CCCNC(=N)N)NC(=O)c1ccc(CNCc2nccn2C)c2ccccc12)c1cccc2ccccc12     0/3
3  C[C@H](NC(=O)[C@H](CCCNC1CCCc2cccnc21)NC(=O)c1ccc(CNCc2ncc[nH]2)cc1)c1cccc2ccccc12 (stereo partly drawn)     0/3
4  O=C(N[C@@H](CCCNC1CCCc2cccnc21)C(=O)NCc1cccc2ccccc12)c1ccc(CNCc2ncc[nH]2)cc1 (stereo partly drawn)     0/3

Request - read-out Number of dead mice | tested on ICR mice | compound C[C@H](NC(=O)[C@H](CCCNC1CCCc2cccnc21)NC(=O)c1ccc(CNCc2ncc[nH]2)c2ccccc12)c1cccc2ccccc12 (stereo partly drawn)
0/3

Now try `C[C@H](NC(=O)[C@H](CCCNC(=N)N)NC(=O)c1ccc(CNCc2ccccn2)c2ccccc12)c1cccc2ccccc12` .
0/3

Now try Cn1ccnc1CNCc1ccc(C(=O)N[C@@H](CCCNC2CCCc3cccnc32)C(=O)NCc2cccc3ccccc23)cc1 (stereo partly drawn) .
0/3

Now try O=C(N[C@@H](CCCNC1CCCc2cccnc21)C(=O)NCc1cccc2ccccc12)c1ccc(CNCc2ncc[nH]2)c2ccccc12 (stereo partly drawn) .
0/3

Now try `C[C@H](NC(=O)[C@H](CCCNC(=N)N)NC(=O)c1ccc(CNCc2ncc[nH]2)c2ccccc12)c1cccc2ccccc12` .
0/3

Now try C[C@H](NC(=O)[C@H](CCCNC1CCCc2cccnc21)NC(=O)c1ccc(CNCc2nccn2C)cc1)c1cccc2ccccc12 (stereo partly drawn) .
0/3

Now try O=C(N[C@@H](CCCNC1CCCc2cccnc21)C(=O)NCc1cccc2ccccc12)c1ccc(CNCc2ccccn2)cc1 (stereo partly drawn) .
0/3
